# Tested on: U-937
# experiment_summary: Cytotoxicity against human U937 cells after 24 hrs by MTT assay
# Format: functional, cell-based
# particulars: U-937, 24 h
Exercise: state measured IC50 for each of the molecules provided.
Answers are plain numbers, in µg/mL.

Examples from the recorded data:
* Cc1cc2ccccc2nc1-c1cn(CCC(F)(F)C(F)(F)C(F)(F)C(F)(F)C(F)(F)C(F)(F)C(F)(F)C(F)(F)F)nn1 | 56.6
* CCCc1cc2ccccc2nc1-c1cn(-c2ccc(F)cc2)nn1 | 67.4
* CCCCCCCCCCn1cc(-c2nc3ccccc3cc2CC)nn1 | 12.7

As a next step, examine the molecule that follows.
# query: IC50 of entry CCCCc1cc2ccccc2nc1-c1cn(CCC(F)(F)C(F)(F)C(F)(F)C(F)(F)C(F)(F)C(F)(F)C(F)(F)C(F)(F)F)nn1
59.1

====

# Tested on: U-937
# experiment_summary: Cytotoxicity against human U937 cells after 24 hrs by MTT assay
# Type: functional, cell-based
# particulars: U-937, 24 h
endpoint: IC50 (mg/L)
Numbers only, in mg/L.

• CCCCc1cc2ccccc2nc1-c1cn(-c2ccc(F)cc2)nn1 = 66.2
• Cc1cc2ccccc2nc1-c1cn(-c2ccc(F)cc2)nn1 = 65.6
• CCCCCCCCCCn1cc(-c2nc3ccccc3cc2CCCCC)nn1 = 18.2
• O=c1[nH]cc(F)c(=O)[nH]1 [FLUOROURACIL] = 0.87
• CCCCCCCCCCn1cc(-c2nc3ccccc3cc2CCCC)nn1 = 25.2

For every item in the list below, what is its measured IC50?
1. CCCCCc1cc2ccccc2nc1-c1cn(-c2ccc(F)cc2)nn1
2. CCCCCCCCCCn1cc(-c2nc3ccccc3cc2CCC)nn1
3. CCc1cc2ccccc2nc1-c1cn(CCC(F)(F)C(F)(F)C(F)(F)C(F)(F)C(F)(F)C(F)(F)C(F)(F)C(F)(F)F)nn1

67.5
26.6
55.9

====

# Test system: COLO 205
# experiment_summary: Cytotoxicity against human COLO205 cells after 24 hrs by MTT assay
# Type: functional, cell-based
# particulars: COLO 205, 24 h
endpoint: IC50

For every item in the list below, what is its measured IC50?
1. CCCCCCCCCCn1cc(-c2nc3ccccc3cc2CCC)nn1
2. CCCCCCCCCCn1cc(-c2nc3ccccc3cc2CCCCC)nn1

1. > 100 µg/mL
2. > 100 µg/mL

For every item in the list below, what is its measured IC50?
1. O=c1[nH]cc(F)c(=O)[nH]1
2. CCc1cc2ccccc2nc1-c1cn(-c2ccc(F)cc2)nn1
3. CCCCCCCCCCn1cc(-c2nc3ccccc3cc2CCCC)nn1
4. CCCCCc1cc2ccccc2nc1-c1cn(-c2ccc(F)cc2)nn1
5. CCCCCCCCCCn1cc(-c2nc3ccccc3cc2CC)nn1

1: 4.03 µg/mL; 2: > 100 µg/mL; 3: > 100 µg/mL; 4: > 100 µg/mL; 5: > 100 µg/mL

For every item in the list below, what is its measured IC50?
1. CCCCc1cc2ccccc2nc1-c1cn(-c2ccc(F)cc2)nn1
2. CCCc1cc2ccccc2nc1-c1cn(CCC(F)(F)C(F)(F)C(F)(F)C(F)(F)C(F)(F)C(F)(F)C(F)(F)C(F)(F)F)nn1
3. CCc1cc2ccccc2nc1-c1cn(CCC(F)(F)C(F)(F)C(F)(F)C(F)(F)C(F)(F)C(F)(F)C(F)(F)C(F)(F)F)nn1
4. CCCCc1cc2ccccc2nc1-c1cn(CCC(F)(F)C(F)(F)C(F)(F)C(F)(F)C(F)(F)C(F)(F)C(F)(F)C(F)(F)F)nn1
5. Cc1cc2ccccc2nc1-c1cn(-c2ccc(F)cc2)nn1
6. CCCCCc1cc2ccccc2nc1-c1cn(CCC(F)(F)C(F)(F)C(F)(F)C(F)(F)C(F)(F)C(F)(F)C(F)(F)C(F)(F)F)nn1

> 100 µg/mL
> 100 µg/mL
95.2 µg/mL
> 100 µg/mL
> 100 µg/mL
> 100 µg/mL

For every item in the list below, what is its measured IC50?
1. CCCCCCCCCCn1cc(-c2nc3ccccc3cc2C)nn1
2. Cc1cc2ccccc2nc1-c1cn(CCC(F)(F)C(F)(F)C(F)(F)C(F)(F)C(F)(F)C(F)(F)C(F)(F)C(F)(F)F)nn1
3. CCCc1cc2ccccc2nc1-c1cn(-c2ccc(F)cc2)nn1

["44.5 µg/mL", "75.8 µg/mL", "> 100 µg/mL"]
